testMethodNotes: soluble on expression in E. coli; label from the status in PepcDB or PDB records

{"columns": ["residues", "soluble on expression in E. coli"],
 "data": [
  ["MHYHGSCHCGTIRFDVEGELTGAMSCNCSICRRKGALLWFVPRDHLRLATPDEQIATYTFNRHLIKHRFCPTCGIHTHGEGVDQQGRAMAAINIRCLDDVDLDAVAVHQYDGRAALEHHHHHH", "soluble"],
  ["MRFSILGLAFASVLSGCVSTTPTTSALSSTDVTTFYDYQLHSPSGNALALQNLPDELKNADVILVGEWHTHAGIHRFQTDLLRQLSSGERRIALSMEQVTRDKQSVLDAYLKGEIGEQYFMSQSNAWPNYESDYRPLVEFAKQANLPVIAANTPKYIVRCIGRQGVDYLNKLDDEERSFVAENVNTANSPYKEKFMASMHHGKPEQTEKQYAAQVTWDETMAESIVKYLAQNPNAQVVHVAGKFHTEAGLGTAASILQRNPELKVVVVNPTSEISTNSPDYQLEVLEPPVRFVQDANRMAAYKHLSTRNDDLQCKLEHHHHHH", "soluble"]
]}

====

testMethodNotes: soluble on expression in E. coli; label from the status in PepcDB or PDB records
assayReadout: soluble on expression in E. coli

{"columns": ["residues", "observedValue"],
 "data": [
  ["MSNYTVKIKNSAKSDLKKIKHSYLKKSFLEIVETLKNDPYKITQSFEKLEPKYLERYSRRINHQHRVVYTVDDRNKEVLILSAWSHYD", "not soluble"],
  ["MAHHHHHHMPQKPLFFIYFFFFQDTPDFGGVDTQTNNNNKKRGFTRDGRGKLAGGDAHSRRDRRMRLRGWGHTAFQTRLNGSRCWGSRGASSASQCVALRSASSSFSMSTSRSPFDAVYVINLNRRPDRWKFILRQLQRAGFREGEYERFTAVDGRAVDIQKAQACGLVSLLGILRLREEESRRIWGMDLNPAAVGCALSHVLLWATIAARRYHRVLVVEDDSLFPHDFQKKYDERMRHVPQDWELVYVSGLDTADQTSQLRVAEGVSRVPQMHRTTNCYVVTHHGARRLLELCLPMTYQLDTMMTMHAVSDPQSGVPHVTSPVCYTLQPPLVVQATRMGSDIQSSNGRDEQEEERARCRAAGWTTD", "soluble"],
  ["MLVLYRASIRFKLRKNKNSFDSSNYFYGGNNICIINTKWGKHSGIGGYAEIIDTLVGNFTNISSWAKIGIRDHIHTNFLICDFVYKDNDHIMPPGISSFEDYWVKIGNDVWVGTNVTILRGVEVGDGAVIAAGSVVTKSIPPYAIVGGNPAKFIKWRFPFEVREKLLEIKWWDWDDDLIKEKKDYLQNLVGFDMDKYKIEYRKRKEDLFYLEHHHHHH", "soluble"],
  ["MGSDKIHHHHHHMNTRDLDYFRALVDCQNYTMVAKQFAVSQPAVTQAIHRLEKEFAVKLVIQDRRHQQTNITRAGQLLYKNARQIQASLQLAHREIQSTLQTDIRFGLPPIIGTLYFPQIAEKLLQNGLLQQLKITETGSDELLRKLVHGEINIALLGSYLPFDLPTVRAVHLGARPFSIIVSPQNSLAKQAAVSFKNLGQAQFIGLDGKYVHPQAFRAYCDFAGVHPEVIYRTPDISWVKALVKANLGISLLVRDVVKADDGVVCLEIKDQLPVSFNISVVTRAGYLPTTDEQRFIDQLLKMKI", "not soluble"]
]}
